# System Under Test: full length mouse TREX1 (Mus musculus, UniProt Q91XB0)
# Construct: N-terminally His-Tev tagged full length mouse TREX1; made in house; host or cells: E. coli
# Sequence (Q91XB0 whole entry): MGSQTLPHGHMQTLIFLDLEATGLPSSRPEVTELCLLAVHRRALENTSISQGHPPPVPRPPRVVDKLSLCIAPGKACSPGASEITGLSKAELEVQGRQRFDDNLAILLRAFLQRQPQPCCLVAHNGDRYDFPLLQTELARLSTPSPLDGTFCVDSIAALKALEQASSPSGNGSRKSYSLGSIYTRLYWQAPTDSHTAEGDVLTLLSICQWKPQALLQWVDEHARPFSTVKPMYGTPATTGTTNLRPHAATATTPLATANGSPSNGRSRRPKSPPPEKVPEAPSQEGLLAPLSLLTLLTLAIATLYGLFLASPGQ
# Method Description: mTREX1 Biochemical Assay (fluorescence, dsDNA substrate degradation)
# Test Conditions: biochemical, read-out: mTREX1 IC50
# Protocol: Degradation of the dsDNA liberates free fluorophore to produce a fluorescent signal. Specifically, 7.5 μL of N-terminally His-Tev tagged full length mouse TREX1 (expressed in E. coli and purified in house) in reaction buffer (50 mM Tris, 150 mM NaCl, 2 mM DTT, 0.1 mg/mL BSA, 0.01% (w/v) Tween-20, 5 mM MgCl2, pH 7.4) was added to a 384-well Black ProxiPlate Plus (PerkinElmer) which already contained compound (150 nL) at varying concentrations as a 10 point dose-response in DMSO. […]
Outcome Measure: IC50

# get_value(readout='IC50', item= Cc1ncc(C(c2cc(F)ccc2C#N)C(C)c2nc(C(=O)Nc3cnoc3)c(O)c(=O)n2C)nc1C (single isomer, unassigned) [Example 124 D2E2] ) > 10 nM

Do the same for CC(c1nc(C(=O)Nc2cnoc2)c(O)c(=O)n1C)C(c1cnn(CC(C)(C)O)c1)c1ccccc1Cl (single isomer, unassigned) [Example 86 D1E1] please 1 to 10 nM

Do the same for Cc1ncc(C(c2ccccc2Cl)C(C)c2nc(C(=O)Nc3cnoc3)c(O)c(=O)n2C)nc1C (single isomer, unassigned) [Example 125 D2E1] please > 10 nM

Do the same for CC(c1nc(C(=O)Nc2cnoc2)c(O)c(=O)n1C)C(c1cnn(C)c1)c1ccc(F)cc1C#N (single isomer, unassigned) [Example 15 D2E2] please > 10 nM

----------
Answer each item with its documented pIC50.
# System Under Test: full length human TREX1 (Homo sapiens, UniProt Q9NSU2)
# Construct: N-terminally His-Tev tagged full length human TREX1; made in house; host or cells: E. coli
# Sequence (Q9NSU2 1-314): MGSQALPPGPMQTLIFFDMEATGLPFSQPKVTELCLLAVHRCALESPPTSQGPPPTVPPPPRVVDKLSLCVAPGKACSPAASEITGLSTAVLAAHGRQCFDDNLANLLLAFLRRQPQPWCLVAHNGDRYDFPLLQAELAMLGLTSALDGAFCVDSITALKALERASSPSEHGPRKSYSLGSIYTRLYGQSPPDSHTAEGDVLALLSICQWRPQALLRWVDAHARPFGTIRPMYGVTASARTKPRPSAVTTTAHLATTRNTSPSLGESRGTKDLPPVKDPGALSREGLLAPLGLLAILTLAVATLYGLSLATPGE
# Method Description: hTREX1 Biochemical Assay (fluorescence, dsDNA substrate degradation)
# Test Conditions: biochemical, read-out: hTREX1 IC50
pIC50: −log10 of the molar value.

# get_value(readout='pIC50', item= CCn1c(C(C)C(c2cnn(C)c2)c2ccccc2C#N)nc(C(=O)Nc2cnoc2)c(O)c1=O (single isomer, unassigned) [Example 149 D1E1] ) < 8.00

Do the same for [2H]C([2H])([2H])n1cc(C(c2ccccc2C#N)C(C)c2nc(C(=O)Nc3cnoc3)c(O)c(=O)n2C)cn1 (single isomer, unassigned) [Example 76 D1E1] please > 9.00

Do the same for Cn1cc(C(c2ccccc2C#N)C(c2nc(C(=O)Nc3cnoc3)c(O)c(=O)n2C)C(F)(F)F)cn1 (single isomer, unassigned) [Example 40 D1E1] please < 8.00

Do the same for Cc1cc(C(c2ccccc2C#N)C(C)c2nc(C(=O)Nc3cnoc3)c(O)c(=O)n2C)ccn1 (single isomer, unassigned) [Example 6 D1E1] please > 9.00

Do the same for CC(c1nc(C(=O)Nc2cnoc2)c(O)c(=O)n1C)C(c1ccccc1C#N)c1c(C#N)cnn1C (single isomer, unassigned) [Example 52 D1E2] please < 8.00

Do the same for CC(c1nc(C(=O)Nc2cnoc2)c(O)c(=O)n1C)C(c1cnc(C(F)(F)F)cn1)c1ccccc1C#N (single isomer, unassigned) [Example 118 D2E2] please < 8.00

Do the same for Cc1cc(C(c2cc(F)ccc2Cl)C(C)c2nc(C(=O)Nc3cnoc3)c(O)c(=O)n2C)n(C)n1 (single isomer, unassigned) [Example 113 D1E1] please < 8.00

Do the same for CC(c1nc(C(=O)Nc2cnoc2)c(O)c(=O)n1C)C(c1cnn(C)c1)c1ccncc1C#N (single isomer, unassigned) [Example 8 D1E1] please < 8.00

Do the same for Cc1nn(C)cc1C(c1ccccc1C#N)C(c1nc(C(=O)Nc2cnoc2)c(O)c(=O)n1C)C(F)(F)F (single isomer, unassigned) [Example 41 D1E2] please > 9.00

Do the same for CCn1cc(C(c2ccccc2C#N)C(C)c2nc(C(=O)Nc3cnoc3)c(O)c(=O)n2C)c(C)n1 (single isomer, unassigned) [Example 70 D2E1] please 8.00 to 9.00

Do the same for Cc1ccnn1C(c1cc(F)ccc1Cl)C(C)c1nc(C(=O)Nc2cnoc2)c(O)c(=O)n1C (single isomer, unassigned) [Example 145 D1E1] please 8.00 to 9.00

Do the same for Cc1cn(C)nc1C(c1ccccc1C#N)C(C)c1nc(C(=O)Nc2cnoc2)c(O)c(=O)n1C (single isomer, unassigned) [Example 64 D2E1] please > 9.00

Do the same for Cc1cnc(C)c(C(c2ccccc2C#N)C(C)c2nc(C(=O)Nc3cnoc3)c(O)c(=O)n2C)n1 (single isomer, unassigned) [Example 82 D1E1] please > 9.00

Do the same for CC(c1nc(C(=O)Nc2cnoc2)c(O)c(=O)n1C)C(c1cnn(CCN(C)C)c1)c1ccccc1C#N (single isomer, unassigned) [Example 33 D2E2] please < 8.00

Do the same for Cc1cnc(C(c2cc(F)ccc2Cl)C(C)c2nc(C(=O)Nc3cnoc3)c(O)c(=O)n2C)cn1 (single isomer, unassigned) [Example 117 D1E1] please < 8.00
